Data credit: patent US8309558B2

EC50 values, listed per item
test system: HCV replicon cells; experiment: HCV replicon FRET / luciferase assay (96-well plates); type: cell-based; settings: Hepatitis C virus, Table 1b; HCV replicon; read-out: EC50

| molecule | EC50 |
| --- | --- |
| CNC(=O)c1c(-c2ccc(F)cc2)oc2ccc(-c3cc(C(=O)NC4(c5nc(C6CC6)no5)CC4)ccc3C)cc12 | < 250 nM |
| CNC(=O)c1c(-c2ccc(F)cc2)oc2ccc(-c3cc(C(=O)NCC(C)C)ccc3OCC(C)O)cc12 (centres unmarked) | < 250 nM |
| CCOc1cc(C(=O)NCC(C)C)cc(-c2ccc3oc(-c4ccc(F)cc4)c(C(=O)NC)c3c2)c1 | 1000 to 10000 nM |
| CNC(=O)c1c(-c2ccc(F)cc2)oc2ccc(-c3ccc(-c4ccccc4NC(C)=O)c(C(=O)NCC(C)C)c3)cc12 | 1000 to 10000 nM |
| CNC(=O)c1c(-c2ccc(F)cc2)oc2ccc(-c3cc(C(=O)NC4(c5ccccn5)CC4)c(-c4ccccc4Cl)cc3C)cc12 | < 250 nM |
| CNC(=O)c1c(-c2ccc(F)cc2)oc2ccc(-c3ccc(Cl)c(C(=O)NC4(c5ccccn5)CC4)c3)cc12 | > 10000 nM |
| CNC(=O)c1c(-c2ccc(F)cc2)oc2ccc(-c3cc(C(=O)NCC(C)C)ccc3OCCCN)cc12 | < 250 nM |
| CNC(=O)c1c(-c2ccc(F)cc2)oc2ccc(-c3ccc(-c4ccccc4C(N)=O)c(C(=O)NCC(C)C)c3)cc12 | < 250 nM |

###

Listed here: items and their measured pIC50.
target: HCV NS5B RdRp genotype 1b (Hepatitis C virus genotype 1b); construct: The protein was expressed with an 18 amino acid C-terminal truncation to enhance the solubility; made in house; host or cells: E. coli BL21(DE3), pET21a vector; assay: Standard HCV NS5B RdRp enzyme assay; type: biochemical; conditions: Table 1b; HCV NS5B RdRp genotype 1b; read-out: IC50
pIC50: −log10 of the molar value.

| compound | pIC50 |
| --- | --- |
| CNC(=O)c1c(-c2ccc(F)cc2)oc2cc(N(CCO)S(C)(=O)=O)c(-c3cc(C(=O)NC4(c5ccccc5)CC4)ccc3C)cc12 | > 6.60 |
| CCC(NC(=O)c1ccc(F)c(-c2cc3c(C(=O)NC)c(-c4ccc(F)cc4)oc3cc2NS(C)(=O)=O)c1)c1ccccc1 (stereo not shown) | > 6.60 |
| CNC(=O)c1c(-c2ccc(F)cc2)oc2ccc(-c3cc(C(=O)NC4(c5nnc(-c6cccc(Cl)c6)[nH]5)CC4)ccc3C)cc12 | > 6.60 |
| CNC(=O)c1c(-c2ccc(F)cc2)oc2ccc(-c3cc(C(=O)NC4(c5nnc(N)o5)CC4)ccc3C)cc12 | > 6.60 |
| CNC(=O)c1c(-c2ccc(F)cc2)oc2cc(N(CCO)S(C)(=O)=O)c(-c3cccc(C(=O)NC4(c5ccc(F)cc5)CC4)c3)cc12 | > 6.60 |
| CNC(=O)c1c(-c2ccc(F)cc2)oc2cc(NS(C)(=O)=O)c(/C=C/C(=O)NC(C)(C)c3ccccc3)cc12 | 5.00 to 6.00 |
| CNC(=O)c1c(-c2ccc(F)cc2)oc2ccc(-c3ccc(-c4ccccc4Cl)c(C(=O)NCC(C)C)c3)cc12 | > 6.60 |
| CNC(=O)c1c(-c2ccc(F)cc2)oc2ccc(-c3cc(OCc4cc(C)on4)cc(C(=O)NCC(C)C)c3)cc12 | < 5.86 |
| CNC(=O)c1c(-c2ccc(F)cc2)oc2ccc(-c3cc(C(=O)NCC(C)C)ccc3OCCCN3CCOCC3)cc12 | > 6.60 |
| CNC(=O)c1c(-c2ccc(F)cc2)oc2ccc(-c3ccc(-c4cccc(OC)c4F)c(C(=O)NCC(C)C)c3)cc12 | < 5.00 |
| CNC(=O)c1c(-c2ccc(F)cc2)oc2ccc(-c3cc(C(=O)NCC(C)C)ccc3OCCc3ccc(O)cc3)cc12 | 6.00 to 6.60 |
| CNC(=O)c1c(-c2ccc(F)cc2)oc2ccc(-c3cccc(C(=O)NC(C)(C)c4nc(C)no4)c3)cc12 | > 6.60 |
| CNC(=O)c1c(-c2ccc(F)cc2)oc2ccc(-c3cc(C(=O)NC4(c5ccccc5)CC4)ccc3OCC(N)=O)cc12 | > 6.60 |

###

target: HCV NS5B RdRp genotype 1b (Hepatitis C virus genotype 1b); construct: The protein was expressed with an 18 amino acid C-terminal truncation to enhance the solubility; made in house; host or cells: E. coli BL21(DE3), pET21a vector; assay: Standard HCV NS5B RdRp enzyme assay; format: biochemical; settings: Table 1a; HCV NS5B RdRp genotype 1b; read-out: IC50

| compound | IC50 |
| --- | --- |
| CNC(=O)c1c(-c2ccc(F)cc2)oc2ccc(-c3ccc(C(=O)NCCC(N)=O)cc3)cc12 | > 10 µM |
| CNC(=O)c1c(-c2ccc(F)cc2)oc2ccc(-c3cccc(C(=O)NC(C)(C)C(=O)N(C)C)c3)cc12 | < 0.25 µM |
| CNC(=O)c1c(-c2ccc(F)cc2)oc2ccc(-c3cccc(C(=O)NC(CO)C(=O)OC)c3)cc12 (stereo not shown) | 0.25 to 1 µM |
| CNC(=O)c1c(-c2ccc(F)cc2)oc2ccc(-c3cccc(CCC(=O)O)c3)cc12 | 1 to 10 µM |

###

# pEC50 per record follows
System: HCV replicon cells
Assay: HCV replicon FRET / luciferase assay (96-well plates)
Assay type: cell-based
Conditions: Hepatitis C virus, 24 h, Table 1d (class symbols); HCV replicon; read-out: EC50
Excerpt: FRET Assay Preparation. To perform the HCV FRET screening assay, 96-well cell culture plates were used. The FRET peptide (Anaspec, Inc.) (Taliani et al., Anal. Biochem. 1996, 240, 60-67) contains a fluorescence donor, EDANS, near one end of the peptide and an acceptor, DABCYL, near the other end. […] Assays. […] The plate was then placed into the Cytoflour 4000 instrument which had been set to 340 excite/490 emission, automatic mode for 20 cycles and the plate read in a kinetic mode. […]
pEC50: −log10 of the molar value.
test-readout: pEC50

| smiles-representation | value |
| --- | --- |
| CNC(=O)c1c(-c2ccc(F)cc2)oc2ccc(-c3cc(C(=O)NC4(c5ccccn5)CC4)c(OCCC4CC4)cc3C)cc12 | 6.60 to 9.00 |
| CNC(=O)c1c(-c2ccc(F)cc2)oc2ccc(-c3cc(C(=O)NC4(c5ncc(C)cn5)CC4)c(OC)cc3C)c(F)c12 | 6.60 to 9.00 |
| CNC(=O)c1c(-c2ccc(F)cc2)oc2ccc(-c3cc(C(=O)NC4(c5ncc(C)o5)CC4)ccc3C)cc12 | 6.60 to 9.00 |
| CNC(=O)c1c(-c2ccc(F)cc2)oc2ccc(-c3cc(C(=O)NC4(c5cnccn5)CC4)ccc3C)cc12 | 6.60 to 9.00 |
| CNC(=O)c1c(-c2ccc(F)cc2)oc2ccc(-c3cc(C(=O)NC4(c5ncc(C)cn5)CC4)ccc3C)c(F)c12 | 6.60 to 9.00 |
| CNC(=O)c1c(-c2ccc(F)cc2)oc2ccc(-c3cc(C(=O)NC4(c5ccncn5)CC4)c(OC)cc3C)cc12 | 6.60 to 9.00 |
| CNC(=O)c1c(-c2ccc(F)cc2)oc2ccc(-c3cc(C(=O)NC4(c5ccnnc5)CC4)ccc3C)cc12 | 6.60 to 9.00 |
| CNC(=O)c1c(-c2ccc(F)cc2)oc2ccc(-c3cc(C(=O)NC4(c5ocnc5C)CC4)ccc3C)cc12 | 6.60 to 9.00 |

###

# IC50 per record follows
target: HCV NS5B RdRp genotype 1b (Hepatitis C virus genotype 1b, UniProt Q9WMX2); construct: The protein was expressed with an 18 amino acid C-terminal truncation to enhance the solubility; made in house; host or cells: E. coli BL21(DE3), pET21a vector; assay: Standard HCV NS5B RdRp enzyme assay; assay type: biochemical; settings: Table 1b; HCV NS5B RdRp genotype 1b; read-out: IC50
Sequence (Q9WMX2 2420-2992): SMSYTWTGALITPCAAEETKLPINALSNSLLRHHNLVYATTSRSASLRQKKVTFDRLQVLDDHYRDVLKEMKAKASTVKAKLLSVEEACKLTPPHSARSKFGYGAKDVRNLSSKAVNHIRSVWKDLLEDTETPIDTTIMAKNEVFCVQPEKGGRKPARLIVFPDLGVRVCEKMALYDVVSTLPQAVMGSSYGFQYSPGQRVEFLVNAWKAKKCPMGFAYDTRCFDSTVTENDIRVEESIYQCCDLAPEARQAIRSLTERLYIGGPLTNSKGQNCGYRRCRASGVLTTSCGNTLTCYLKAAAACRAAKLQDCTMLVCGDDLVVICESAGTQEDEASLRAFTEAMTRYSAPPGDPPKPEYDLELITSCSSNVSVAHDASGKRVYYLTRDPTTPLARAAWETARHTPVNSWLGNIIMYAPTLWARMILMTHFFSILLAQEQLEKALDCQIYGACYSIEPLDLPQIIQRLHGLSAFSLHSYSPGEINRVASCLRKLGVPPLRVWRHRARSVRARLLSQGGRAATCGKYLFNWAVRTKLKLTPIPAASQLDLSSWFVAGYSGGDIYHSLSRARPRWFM
test-readout: IC50

| compound | test-readout | value |
| --- | --- | --- |
| CNC(=O)c1c(-c2ccc(F)cc2)oc2ccc(-c3cc(C(=O)NC4(c5ncccn5)CC4)c(OC)cc3C)cc12 | IC50 | < 250 nM |
| CNC(=O)c1c(-c2ccc(F)cc2)oc2ccc(-c3cc(C(=O)NC4(c5ncccn5)CC4)ccc3C)cc12 [drawing 570] | IC50 | < 250 nM |
| CNC(=O)c1c(-c2ccc(F)cc2)oc2cc(NS(C)(=O)=O)c(-c3cc(C(=O)NC4(c5ccccc5)CC4)ccc3C)cc12 | IC50 | < 250 nM |
| CNC(=O)c1c(-c2ccc(F)cc2)oc2ccc(-c3cc(C(=O)NC4(c5ccccn5)CC4)ccc3OCCN)cc12 | IC50 | < 20 nM |
| CNC(=O)c1c(-c2ccc(F)cc2)oc2ccc(-c3cc(C(=O)NC4(c5nc(C6CC6)no5)CC4)ccc3C)cc12 | IC50 | < 250 nM |
| CNC(=O)c1c(-c2ccc(F)cc2)oc2ccc(-c3cc(C(=O)NCC(C)C)cc(-c4ccccc4)c3)cc12 | IC50 | > 10000 nM |
| CCOc1cc(C(=O)NCC(C)C)cc(-c2ccc3oc(-c4ccc(F)cc4)c(C(=O)NC)c3c2)c1 | IC50 | > 500 nM |
| CNC(=O)c1c(-c2ccc(F)cc2)oc2ccc(-c3ccc(-c4ccsc4)c(C(=O)NCC(C)C)c3)cc12 | IC50 | < 250 nM |
